# testTarget: CAT1 (cationic amino acid transporter 1, CAT1/SLC7A1) (Homo sapiens)
# Construct: full-length human transporter stably transfected in HEK cells (HEK-CAT1); net uptake against HEK-VC vector control cells
# Sequence (P30825 whole entry): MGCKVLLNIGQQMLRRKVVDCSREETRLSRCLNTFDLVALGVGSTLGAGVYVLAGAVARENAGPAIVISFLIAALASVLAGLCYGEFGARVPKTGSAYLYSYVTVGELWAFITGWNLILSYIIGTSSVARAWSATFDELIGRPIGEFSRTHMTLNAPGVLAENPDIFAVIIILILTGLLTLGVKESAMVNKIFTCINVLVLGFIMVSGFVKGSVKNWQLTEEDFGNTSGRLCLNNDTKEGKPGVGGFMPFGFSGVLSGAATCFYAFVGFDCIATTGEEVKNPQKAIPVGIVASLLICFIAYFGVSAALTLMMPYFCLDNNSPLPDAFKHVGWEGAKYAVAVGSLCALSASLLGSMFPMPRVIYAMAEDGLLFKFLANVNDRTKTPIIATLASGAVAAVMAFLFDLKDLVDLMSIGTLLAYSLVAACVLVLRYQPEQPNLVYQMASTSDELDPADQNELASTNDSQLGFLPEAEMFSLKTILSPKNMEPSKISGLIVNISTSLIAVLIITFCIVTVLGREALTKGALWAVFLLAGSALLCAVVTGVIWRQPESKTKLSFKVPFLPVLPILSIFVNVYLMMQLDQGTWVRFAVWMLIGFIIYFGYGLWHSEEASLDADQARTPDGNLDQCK
# testProtocol: cell-based
# Parameters: species or system HEK-CAT1 (HEK293 stably transfected); Inhibition of net CAT1-mediated [3H]-ADMA (1 uM) uptake, 2.5 min, scintillation counting, vector control subtracted
# experimentalSetup: HEK293; ADMA 1 uM as substrate; read-out: % Inhibition of ADMA uptake at 200 µM
Measured inhibition at 200 µM values are reported for all entries that follow.
The reply should contain only the number, in %.

Take a look at these entries with their results.
Report inhibition at 200 µM on CAT1 (cationic amino acid transporter 1, CAT1/SLC7A1) (Homo sapiens) for this entry: CNCCCN1c2ccccc2CCc2ccccc21
-37.6

Report inhibition at 200 µM on CAT1 (cationic amino acid transporter 1, CAT1/SLC7A1) (Homo sapiens) for this entry: CCN(CC)CCCC(C)Nc1ccnc2cc(Cl)ccc12 (stereo not shown)
-23.1

Report inhibition at 200 µM on CAT1 (cationic amino acid transporter 1, CAT1/SLC7A1) (Homo sapiens) for this entry: Cc1ccc(-c2ncc(Cl)cc2-c2ccc(S(C)(=O)=O)cc2)cn1
-22.8

Report inhibition at 200 µM on CAT1 (cationic amino acid transporter 1, CAT1/SLC7A1) (Homo sapiens) for this entry: C#C[C@]1(O)CC[C@H]2[C@@H]3CCC4=CC(=O)CC[C@@H]4[C@H]3CC[C@@]21C
-3.1

Report inhibition at 200 µM on CAT1 (cationic amino acid transporter 1, CAT1/SLC7A1) (Homo sapiens) for this entry: CCOC(=O)[C@H](CCc1ccccc1)N[C@@H](C)C(=O)N1[C@H](C(=O)O)C[C@@H]2CCC[C@@H]21
-31.1

Report inhibition at 200 µM on CAT1 (cationic amino acid transporter 1, CAT1/SLC7A1) (Homo sapiens) for this entry: C[C@]12CC[C@@H]3c4ccc(O)cc4CC[C@H]3[C@@H]1CC[C@@H]2O
-32.9

Report inhibition at 200 µM on CAT1 (cationic amino acid transporter 1, CAT1/SLC7A1) (Homo sapiens) for this entry: O=C(O)c1cc(-c2ccc(F)cc2F)ccc1O
10

Report inhibition at 200 µM on CAT1 (cationic amino acid transporter 1, CAT1/SLC7A1) (Homo sapiens) for this entry: CC12CC3CC(C)(C1)CC(N)(C3)C2 [Memantine]
-9.6

---
Report inhibition at 200 µM on CAT1 (cationic amino acid transporter 1, CAT1/SLC7A1) (Homo sapiens) for this entry: CC#C[C@]1(O)CC[C@H]2[C@@H]3CCC4=CC(=O)CCC4=C3[C@@H](c3ccc(N(C)C)cc3)C[C@@]21C
5.6

Report inhibition at 200 µM on CAT1 (cationic amino acid transporter 1, CAT1/SLC7A1) (Homo sapiens) for this entry: CC(CN1c2ccccc2Sc2ccccc21)N(C)C (stereo not shown)
-9.2

Report inhibition at 200 µM on CAT1 (cationic amino acid transporter 1, CAT1/SLC7A1) (Homo sapiens) for this entry: COc1ccc(OC)c(C(O)C(C)N)c1 (stereo not shown)
1.8

Report inhibition at 200 µM on CAT1 (cationic amino acid transporter 1, CAT1/SLC7A1) (Homo sapiens) for this entry: COc1ccc([C@@H]2Sc3ccccc3N(CCN(C)C)C(=O)[C@@H]2OC(C)=O)cc1
9.1

These data points were gathered from paper PMC9217908.
